- targetSystem: HCV NS3 helicase NS3h_1b(con1) (Hepatitis C virus genotype 1b)
- Construct: truncated C-terminally His-tagged NS3 proteins lacking the N-terminal protease, called NS3h; His-tag (C); made in house
- Sequence (Q9WMX2 1192-1657): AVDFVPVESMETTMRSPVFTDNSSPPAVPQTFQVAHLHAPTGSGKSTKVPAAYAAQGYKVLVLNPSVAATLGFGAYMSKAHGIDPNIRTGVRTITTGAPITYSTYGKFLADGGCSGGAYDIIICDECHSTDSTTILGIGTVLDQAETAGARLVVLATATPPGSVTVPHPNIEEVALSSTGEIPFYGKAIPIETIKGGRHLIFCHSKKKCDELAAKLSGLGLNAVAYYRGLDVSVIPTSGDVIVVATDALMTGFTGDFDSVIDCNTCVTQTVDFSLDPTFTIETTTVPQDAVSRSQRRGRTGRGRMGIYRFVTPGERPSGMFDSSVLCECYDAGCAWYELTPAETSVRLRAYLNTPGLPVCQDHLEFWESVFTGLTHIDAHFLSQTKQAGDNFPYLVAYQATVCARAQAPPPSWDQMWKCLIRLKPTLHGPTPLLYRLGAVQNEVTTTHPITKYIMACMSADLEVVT
- assayExplanation: MBHA screen of NCI mechanistic set library at 20 μM (percent inhibition, compound interference)
- Assay type: biochemical
- conditionDescription: compounds at 20 μM, MBHA with DNA substrate; calculated from Equation 1
Measured Inh. (%) (Inhibition) values are reported for all entries that follow.
assayMetric: Inh. (%) (Inhibition)

COC(=O)[C@@H]1c2cc3c(c(O)c2[C@@H](OC)C[C@@]1(C)O)C(=O)c1c(O)cc2c(c1C3=O)O[C@@H]1O[C@@]2(C)[C@H](O)[C@@H](N(C)C)[C@@H]1O | −11.4
CN(C)c1ccc(C=c2c3ccccc3n3c2cc(-c2ccc(Cl)cc2)[n+]3C)cc1.O=S(=O)([O-])C(F)(F)F | 45.1
O=C1C=C2C=CC3CC2(O1)C1CCCCN31 (stereo not shown) | −15.2
CO[C@@H]1[C@H](O)C[C@@H](O[C@@H]2C[C@H](Oc3cc4cc5c(c(O)c4c(O)c3C)C(=O)[C@@H](O[C@H]3C[C@@H](O[C@H]4C[C@@H](O[C@H]6C[C@](C)(O)[C@@H](OC(C)=O)[C@H](C)O6)[C@H](O)[C@@H](C)O4)[C@H](O)[C@@H](C)O3)[C@H]([C@H](OC)C(=O)[C@@H](O)[C@@H](C)O)C5)O[C@H](C)[C@@H]2OC(C)=O)O[C@@H]1C | 54.9
COc1ccc2[nH]c3c(C)c4ccncc4c(C)c3c2c1 | 99.2
Cc1cc(C)c(NC(=O)/C=C/c2ccccc2)c(C)c1 | −1.8
Oc1cc2c3c(c1)c1cc4c(cc1c[n+]3CC2)OCO4.[Cl-] | 45.5
[Cl-].[Cl-].[Cl-].[Rh+3].c1ccc(-c2ccnc3c2ccc2c(-c4ccccc4)ccnc23)cc1.c1ccc(-c2ccnc3c2ccc2c(-c4ccccc4)ccnc23)cc1.c1ccc(-c2ccnc3c2ccc2c(-c4ccccc4)ccnc23)cc1 | 23.8
Cc1c(C(=O)C/C(=N/NC(=O)CC#N)C(N)=O)[n+](=O)c2ccccc2n1[O-] | −12.7
COC(=O)C1(C)CCCC2(C)c3cc(OC)ccc3C(=O)C(Br)C12 (stereo not shown) | 0.0
Cc1c(Cl)ccc2c1NC(=O)C2(O)C(C(=O)c1ccccc1)c1ccccc1 (stereo not shown) | 5.1
CCCC(=O)[O-].[Na+] | 1.1
O=C1C(CN2CCCCC2)CCCC1CN1CCCCC1 (stereo not shown) | 4.5
Cc1c2c(cc3c1[nH]c1ccccc13)C=NCC2 | 18.6
Br.COC1CN(C)C(=Nc2cccc3ccccc23)S1 (stereo not shown) | −14.0
CCCCCCCCCCCCCCCCOCC(O)CO (stereo not shown) | −9.7
Cc1ccc2ccc3ccc(C)nc3c2n1 | −9.2
Cc1c2ccc3ccccc3c2c[n+]2ccccc12.[Cl-] | 27.1
C[N+](C)(C)CC1CCCC1=O.[I-] (stereo not shown) | 12.2
Cc1c(Cl)cccc1NC(=O)c1cccc([N+](=O)[O-])c1O | −0.8
CCOC(=O)Nc1cc2c(c(N)n1)N=C(c1ccccc1)CN2 | −1.6
O=C1C(Br)=C(Br)C(=O)c2ccccc21 | −18.7
CSCC(CO)NC(=O)/C=C/c1c(C)[nH]c(=O)[nH]c1=O (stereo not shown) | 17.4
C=C1C(=O)C2=CC1CCC(=O)C1(C)CCC(OC(C)=O)C(C)(C)C1CC2O (stereo not shown) | −8.3
CC(=O)OCCN1c2ccccc2Sc2cnccc21 | −12.6
Cc1cc(=O)[nH]c(NN2C(Cl)C(=O)C2c2cccc([N+](=O)[O-])c2)n1 (stereo not shown) | 17.5
C=C(C#N)C(=O)OCC(CC)CC.C=C(C#N)C(=O)OCC(CC)CC.CS(C)=O.CS(C)=O.Nc1c(N=Nc2ccc(-c3ccc(N=Nc4cc(S(=O)(=O)[O-])c5ccccc5c4N)cc3)cc2)cc(S(=O)(=O)[O-])c2ccccc12.[Pt+2] | −17.7
CC(C)OP(=O)(OC(C)C)C(N(C)C)P(=O)(OC(C)C)OC(C)C.[Cl][Sn]([Cl])([Cl])[c]1ccccc1 | 2.4
